# System: 266295-075-R-J1-PDC spheroid viability;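 further: spheroids exposed to compounds for seven days before readout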
# ASSAY_OVERVIEW: Anticancer human tumor 266295-075-R-J1-PDC patient-derived head and neck squamous carcinoma cell line growth inhibition [POLQ]
# MEASUREMENT_CONDITIONS: second compound 10 µM; first compound 0.000316 µM; hits give low values; spheroids with HUVEC and MSC
Listing of recorded viability, T/C by entry.

Example entries and their recorded answers appear below.
Cn1ncnc1[C@H]1c2n[nH]c(=O)c3cc(F)cc(c23)N[C@@H]1c1ccc(F)cc1 + Nc1ccc(C#CCN(C(=O)Cc2ncc(C(F)(F)F)cc2C(F)(F)F)c2ccc(F)cc2)nn1: 91.6%
Cn1ncnc1[C@H]1c2n[nH]c(=O)c3cc(F)cc(c23)N[C@@H]1c1ccc(F)cc1 + Cc1cccc(N(C)C(=O)C2C(O)CCN2c2nc(C)cc(C(F)(F)F)c2C#N)c1: 119%

The compound CC[C@@]1(O)C(=O)OCc2c1cc1n(c2=O)Cc2cc3c(CN(C)C)c(O)ccc3nc2-1 + COC1C(OC(N)=O)C(O)C(Oc2ccc3c(O)c(NC(=O)c4ccc(O)c(CC=C(C)C)c4)c(=O)oc3c2C)OC1(C)C , tested on 266295-075-R-J1-PDC spheroid viability, showed viability, T/C of 95.8%
